The following binders are listed with their measured Kd values.
# assayed.target: T1, human KDR (human, UniProt P35968 20-1356)
# T1 construct: whole, on cells; also called VEGFR2; endogenously-expressed KDR in HUVEC cells
# T1 sequence (P35968 20-1356): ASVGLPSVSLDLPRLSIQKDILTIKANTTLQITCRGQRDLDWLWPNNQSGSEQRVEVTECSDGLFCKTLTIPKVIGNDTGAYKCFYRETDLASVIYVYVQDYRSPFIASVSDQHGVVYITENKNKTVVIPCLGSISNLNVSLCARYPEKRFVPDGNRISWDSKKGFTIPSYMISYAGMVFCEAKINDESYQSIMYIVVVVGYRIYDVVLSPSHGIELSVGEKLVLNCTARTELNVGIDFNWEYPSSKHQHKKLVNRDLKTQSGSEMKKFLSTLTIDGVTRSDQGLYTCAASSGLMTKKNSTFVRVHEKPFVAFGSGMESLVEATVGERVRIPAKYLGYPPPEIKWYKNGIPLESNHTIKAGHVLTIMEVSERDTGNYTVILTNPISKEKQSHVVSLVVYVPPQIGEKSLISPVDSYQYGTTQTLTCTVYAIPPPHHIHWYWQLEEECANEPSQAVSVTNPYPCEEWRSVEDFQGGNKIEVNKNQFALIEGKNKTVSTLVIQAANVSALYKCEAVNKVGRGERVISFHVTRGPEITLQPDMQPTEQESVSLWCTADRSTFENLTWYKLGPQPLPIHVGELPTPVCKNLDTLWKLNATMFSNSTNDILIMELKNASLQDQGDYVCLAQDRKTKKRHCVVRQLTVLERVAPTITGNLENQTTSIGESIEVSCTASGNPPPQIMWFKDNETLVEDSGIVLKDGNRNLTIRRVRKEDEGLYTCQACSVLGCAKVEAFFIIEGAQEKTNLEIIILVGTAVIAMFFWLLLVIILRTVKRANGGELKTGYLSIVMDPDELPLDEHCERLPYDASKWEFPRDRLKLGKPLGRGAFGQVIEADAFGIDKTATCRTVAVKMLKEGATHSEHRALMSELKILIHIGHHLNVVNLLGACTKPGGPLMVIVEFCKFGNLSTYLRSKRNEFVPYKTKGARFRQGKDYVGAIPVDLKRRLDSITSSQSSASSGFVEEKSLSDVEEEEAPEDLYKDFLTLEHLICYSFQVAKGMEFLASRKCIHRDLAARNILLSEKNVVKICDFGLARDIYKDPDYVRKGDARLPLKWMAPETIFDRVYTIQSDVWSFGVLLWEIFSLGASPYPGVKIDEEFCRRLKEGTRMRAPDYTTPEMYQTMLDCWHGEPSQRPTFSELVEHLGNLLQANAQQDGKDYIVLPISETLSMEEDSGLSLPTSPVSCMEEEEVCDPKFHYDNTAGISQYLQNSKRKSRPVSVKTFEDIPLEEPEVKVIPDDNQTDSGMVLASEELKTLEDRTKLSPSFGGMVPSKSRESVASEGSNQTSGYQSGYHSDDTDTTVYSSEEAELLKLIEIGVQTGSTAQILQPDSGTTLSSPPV
# run.description: FACS titration of purified antibody on HUVEC cells (FACS Kd)
The figure you give is taken to be in nM; do not add the unit.

binder	assay.result
27A3 (antibody, V domains shown, Fully human monoclonal antibody from a XenoMouse hybridoma (IgG2 or IgG4 strain), purified) VH: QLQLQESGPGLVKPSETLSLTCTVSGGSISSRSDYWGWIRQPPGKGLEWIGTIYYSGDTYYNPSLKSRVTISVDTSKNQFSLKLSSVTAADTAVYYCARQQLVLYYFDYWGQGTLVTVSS VL: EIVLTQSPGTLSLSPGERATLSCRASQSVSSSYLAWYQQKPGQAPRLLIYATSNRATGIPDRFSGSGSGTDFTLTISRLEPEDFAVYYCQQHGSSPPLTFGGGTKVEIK	5.4
33E1 (antibody, V domains shown, Fully human monoclonal antibody from a XenoMouse hybridoma (IgG2 or IgG4 strain), purified) VH: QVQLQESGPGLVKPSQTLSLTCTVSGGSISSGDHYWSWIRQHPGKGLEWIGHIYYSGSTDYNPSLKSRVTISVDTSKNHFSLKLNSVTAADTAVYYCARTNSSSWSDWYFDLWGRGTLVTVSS VL: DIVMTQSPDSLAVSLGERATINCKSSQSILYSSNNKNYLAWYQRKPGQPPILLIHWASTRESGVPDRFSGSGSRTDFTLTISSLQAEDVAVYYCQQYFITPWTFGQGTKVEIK	3.8

# binder 32G7 (antibody, V domains shown, Fully human monoclonal antibody from a XenoMouse hybridoma (IgG2 or IgG4 strain), purified) VH: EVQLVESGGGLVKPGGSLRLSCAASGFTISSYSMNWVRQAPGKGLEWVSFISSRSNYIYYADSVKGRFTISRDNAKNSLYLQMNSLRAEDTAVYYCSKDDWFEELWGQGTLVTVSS VL: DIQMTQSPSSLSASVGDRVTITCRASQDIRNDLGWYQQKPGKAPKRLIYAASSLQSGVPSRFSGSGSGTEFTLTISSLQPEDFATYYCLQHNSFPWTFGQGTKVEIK ; its Kd = 0.2
